Listing: area under dose-response curve of selected compounds
system: DIPGX29 (H3.3 K27M diffuse intrinsic pontine glioma line); experiment: area under dose-response curve of % growth inhibition (log2 RLU vs DMSO / staurosporine), 1e-11 to 1e-4 M (% x log10 M); higher = more growth inhibition

Worked examples, 10 compounds total:
Nc1ncnc2c1c(COc1cccc(Cl)c1)nn2C1CCOCC1
10
CN1CCN(CCCN2c3ccccc3Sc3ccc(C(F)(F)F)cc32)CC1 [TRIFLUOPERAZINE]
74.2
Clc1ccc(C(Cn2ccnc2)OCc2ccsc2Cl)c(Cl)c1 (stereo not drawn) [TIOCONAZOLE]
36.4
O=C(N/N=C/c1ccc([N+](=O)[O-])o1)c1ccc(O)cc1 [NIFUROXAZIDE]
73.5
CO[C@@]12[C@H](COC(N)=O)C3=C(C(=O)C(C)=C(N)C3=O)N1C[C@@H]1N[C@@H]12 [MITOMYCIN C]
78
Cc1c(C2CCN(CCc3ccccc3)CC2)noc1-c1ccc(Cl)cc1 [L-741,742]
100
Nc1ncn([C@@H]2O[C@H](CO)[C@@H](O)[C@H]2O)c(=O)n1 [5-AZACYTIDINE]
12.5
S=c1[nH]cnc2nc[nH]c12 [MERCAPTOPURINE]
44.1
C=CC(=O)N1CCC[C@@H](n2nc(-c3ccc(Oc4ccccc4)cc3)c3c(N)ncnc32)C1 [IBRUTINIB]
49.8
CC[C@]1(O)C[C@@H]2CN(CCc3c([nH]c4ccccc34)[C@@](C(=O)OC)(c3cc4c(cc3OC)N(C)[C@H]3[C@@](O)(C(=O)OC)[C@H](OC(C)=O)[C@]5(CC)C=CCN6CC[C@]43[C@@H]65)C2)C1 [VINBLASTINE]
88.8

Lookup: Form field: reported area under dose-response curve of c1ccc(-c2ccc(C(c3ccccc3)n3ccnc3)cc2)cc1 (stereo not drawn) [BIFONAZOLE]
Found: 17.3

Lookup: Please give the result for CC(=O)N1CCN(c2ccc(OCC3COC(Cn4ccnc4)(c4ccc(Cl)cc4Cl)O3)cc2)CC1 (stereo not drawn) [KETOCONAZOLE] too.
Found: 40.9

Lookup: Do the same for CCC(C)n1ncn(-c2ccc(N3CCN(c4ccc(OCC5COC(Cn6cncn6)(c6ccc(Cl)cc6Cl)O5)cc4)CC3)cc2)c1=O (stereo not drawn) [ITRACONAZOLE] please
Found: 20

----------
test system: SUDIPGXVII (diffuse intrinsic pontine glioma line); assay: maximal growth inhibition (yFin) relative to DMSO / staurosporine; higher = more efficacious
Outcome: rule met for maximal growth inhibition of at least 60%; rule not met for anything lower.

Please review the entries below; each comes with its answer.
CC(C)c1c2cc(-c3ccnc(NC4CCC(NC5CCOCC5)CC4)n3)ccc2nn1C (configuration not stated)
rule met
CCOC(=O)CCNc1cc(N2CCc3ccccc3CC2)nc(-c2ccccn2)n1
rule not met
CC(C)c1cc(C(=O)N2Cc3ccc(CN4CCN(C)CC4)cc3C2)c(O)cc1O
rule met
COC(=O)[C@]12CCC(C)(C)C[C@H]1[C@H]1C(=O)C=C3[C@@]4(C)C=C(C#N)C(=O)C(C)(C)[C@@H]4CC[C@@]3(C)[C@]1(C)CC2
rule met

Lookup: Quick check: does COCC1(CO)C(=O)C2CCN1CC2 (configuration not stated) have maximal growth inhibition greater than or equal to 60%?
Found: rule met

----------
# Lookup of reported area under dose-response curve keyed by entry
test system: SUDIPGIV (diffuse intrinsic pontine glioma line); test: area under dose-response curve of % growth inhibition (log2 RLU vs DMSO / staurosporine), 1e-11 to 1e-4 M (% x log10 M); higher = more growth inhibition
In your answer, state the number alone without any accompanying words.

Worked cases, answers included:
CN(C)C/C=C/C(=O)Nc1ccc(C(=O)Nc2cccc(Nc3ncc(Cl)c(-c4c[nH]c5ccccc45)n3)c2)cc1
342
Cc1c(C2CCN(CCc3ccccc3)CC2)noc1-c1ccc(Cl)cc1
91.7
CCOc1cc(C(C)(C)C)ccc1C1=N[C@@](C)(c2ccc(Cl)cc2)[C@@](C)(c2ccc(Cl)cc2)N1C(=O)N1CCN(CCCS(C)(=O)=O)CC1
47.8

Lookup: Name the recorded area under dose-response curve for N[C@H]1C[C@@H]1c1ccc(-c2cccc(O)c2)cc1 .
Found: 174

Lookup: Would you mind doing NC1CCC(Nc2cc(-c3cccc(NCc4cccc(F)c4)n3)c(Cl)cn2)CC1 (configuration not stated) as well?
Found: 243

Lookup: // query: COc1ccc(C[C@H](NC(=O)[C@H](C)NC(=O)CN2CCOCC2)C(=O)N[C@@H](Cc2ccccc2)C(=O)C2(C)CO2)cc1 (stereo in doubt)
Found: 255

Lookup: Thanks! And CN1[C@@H]2CC[C@H]1C[C@@H](OC(=O)c1cc(Cl)cc(Cl)c1)C2 ?
Found: 93.7

----------
test system: HGGX6 (H3.3 G34R paediatric high-grade glioma line); experiment: maximal growth inhibition (yFin) relative to DMSO / staurosporine; higher = more efficacious
measurementKind: maximal growth inhibition
Please make sure the unit comes right after the number.

NCCOc1cc(C(=O)Nc2cc(OCCN)c3ccccc3n2)nc(C(=O)Nc2cc(OCCN)c3ccccc3n2)c1
56.9%
Cc1cc(=O)n(C)c2cc(N3C(=O)CC[C@H](NS(=O)(=O)CC(C)C)[C@H]3c3ccc(Cl)cc3)ccc12
22.4%
CCCc1cc(C)[nH]c(=O)c1CNC(=O)c1cc(-c2ccc(N3CCN(C(C)C)CC3)nc2)cc2c1cnn2C(C)C
72.5%
CCCCc1oc2ccc(NS(C)(=O)=O)cc2c1C(=O)c1ccc(OCCCN(CCCC)CCCC)cc1
93.4%

Continue with the next molecule.
Lookup: Consider the molecule shown here: COc1cc(NC(C)CCCN)c2ncccc2c1 (stereo not given) What is its recorded maximal growth inhibition?
Found: 78%

----------
system: HGGX2 (paediatric high-grade glioma line); test: area under dose-response curve of % growth inhibition (log2 RLU vs DMSO / staurosporine), 1e-11 to 1e-4 M (% x log10 M); higher = more growth inhibition
measurementKind: area under dose-response curve
Respond numerically, and do not add a unit to the figure.

CC(=O)c1ccc2c(c1)c1cc(C(C)=O)ccc1n2CCNC(C)C
134
Cc1ccc2nc(NCCN)c3ncc(C)n3c2c1
54.2
CN(C)C/C=C/C(=O)Nc1cc2c(Nc3ccc(F)c(Cl)c3)ncnc2cc1O[C@H]1CCOC1
115
CC12CC3CC(C)(C1)CC(N)(C3)C2 [MEMANTINE]
2.91
OC1(c2ccc(Cl)c(C(F)(F)F)c2)CCN(CCCC(c2ccc(F)cc2)c2ccc(F)cc2)CC1
175
COc1ccc(C[C@H](NC(=O)[C@H](C)NC(=O)CN2CCOCC2)C(=O)N[C@@H](Cc2ccccc2)C(=O)C2(C)CO2)cc1 (stereo in doubt)
277
NC1CCC(Nc2cc(-c3cccc(NCc4cccc(F)c4)n3)c(Cl)cn2)CC1 (stereo not given)
181
O=C1NC(=O)C(c2cnc3ccccn23)=C1c1cn2c3c(cc(F)cc13)CN(C(=O)N1CCCCC1)CC2
27
Fc1ccc(N2CCN(CCC3OCCc4ccccc43)CC2)cc1 (stereo not given)
15.4
CC(=O)c1cc([N+](=O)[O-])c(Sc2ccc(F)cc2F)s1
78.5

Lookup: Look up area under dose-response curve: O=C(Nc1ccccc1-c1cn2c(CN3CCNCC3)csc2n1)c1cnc2ccccc2n1
Found: 158

Lookup: Same lookup for CC(C)[C@H]1C(=O)N[C@@H](CCCNC(=N)N)C(=O)NCC(=O)N[C@@H](CC(=O)O)C(=O)N[C@H](Cc2ccccc2)C(=O)N1C [CILENGITIDE] , please.
Found: 8.33

Lookup: Next: COC1=CC(c2cc3ccccc3[nH]2)=N/C1=C\c1[nH]c(C)cc1C
Found: 217

Lookup: Now try CN1CCCN(C(=O)c2cccc(-c3ccc(/C=C4/C(=O)Nc5ccc(Cl)cc54)o3)c2)CC1 .
Found: 162

Lookup: Would you mind doing COc1ccc(Cn2ccc3ccc(C(=O)NO)cc32)cc1 as well?
Found: 14.8

----------
// reported area under dose-response curve per item
tested on: DIPGX37 (H3.3 K27M diffuse intrinsic pontine glioma line); assay: area under dose-response curve of % growth inhibition (log2 RLU vs DMSO / staurosporine), 1e-11 to 1e-4 M (% x log10 M); higher = more growth inhibition
Number, no unit, nothing else.

# example entries with known answers
O=C([C@@H](Cc1cccc(C(F)(F)F)c1)NS(=O)(=O)c1cc(F)c2c(c1)CCNC2)N1CCCC1 [PFI-2]
0.851
C[C@]1(c2nc3c(C(N)=O)cccc3[nH]2)CCCN1 [VELIPARIB]
0
CNCCN1CCC(OCc2ccccc2)CC1 [MS049]
10.6

Lookup: # lookup: area under dose-response curve of Nc1c2ccccc2nc2ccccc12 [9-AMINOACRIDINE]
Found: 70.3

Lookup: Continue with CN[C@H]1CC[C@@H](c2ccc(Cl)c(Cl)c2)c2ccccc21 [SERTRALINE]
Found: 70

Lookup: Input COc1cc([C@@H]2c3cc4c(cc3[C@@H](O[C@@H]3O[C@@H]5CO[C@@H](c6cccs6)O[C@H]5[C@H](O)[C@H]3O)[C@H]3COC(=O)[C@H]23)OCO4)cc(OC)c1O [TENIPOSIDE]
Found: 81.2

Origin of values: the supplement of paper PMC8253809
